Data provenance is patent US4962108A.

system: Klebsiella pneumoniae MGH-2; assay: in vitro antibacterial activity, microtitration dilution method; assay type: cell-based; conditions: MGH2; in vitro; Klebsiella pneumoniae MGH-2; read-out: minimal inhibitory concentration (MIC)
ENDPOINT_LABEL: MIC (µg/mL)
Numbers only, in µg/mL.

Worked cases, MIC given:
>  <COMPOUND>
CCN[C@@H]1C[C@H]2CC[C@@H](C1)N2c1nc2c(cc1F)c(=O)c(C(=O)O)cn2C1CC1

>  <MIC [µg/mL]>
0.4

$$$$
>  <COMPOUND>
CCN[C@H]1C[C@H]2CC[C@@H](C1)N2c1cc2c(cc1F)c(=O)c(C(=O)O)cn2C1CC1

>  <MIC [µg/mL]>
3.1

$$$$
>  <COMPOUND>
CCN[C@@H]1C[C@H]2CC[C@@H](C1)N2c1cc2c(cc1F)c(=O)c(C(=O)O)cn2C1CC1

>  <MIC [µg/mL]>
0.8

$$$$
>  <COMPOUND>
O=C(O)c1cn(C2CC2)c2c(Cl)c(N3CC4CCCC3CN4)c(F)cc2c1=O (stereo not shown)

>  <MIC [µg/mL]>
0.2

$$$$
>  <COMPOUND>
CCN[C@H]1C[C@H]2CC[C@@H](C1)N2c1c(F)cc2c(=O)c(C(=O)O)cn(C3CC3)c2c1F

>  <MIC [µg/mL]>
0.8

$$$$
>  <COMPOUND>
CCN[C@H]1C[C@H]2CC[C@@H](C1)N2c1nc2c(cc1F)c(=O)c(C(=O)O)cn2C1CC1

>  <MIC [µg/mL]>
0.8

$$$$

// MIC lookup, key: `CCN[C@@H]1C[C@H]2CC[C@@H](C1)N2c1c(F)cc2c(=O)c(C(=O)O)cn(C3CC3)c2c1F`
0.4

----------
Provide the reported MIC of each item.
test system: Enterobacter cloacae MA 2646; test: in vitro antibacterial activity, microtitration dilution method; assay type: cell-based; settings: MA2646; in vitro; Enterobacter cloacae MA 2646; read-out: minimal inhibitory concentration (MIC)
One number for each entry, in µg/mL.

Worked cases, MIC given:
>  <COMPOUND>
CCN[C@H]1C[C@H]2CC[C@@H](C1)N2c1nc2c(cc1F)c(=O)c(C(=O)O)cn2C1CC1 [Example 5b]

>  <UNIT_DESCRIPTOR>
µg/mL

>  <MIC>
0.8

$$$$
>  <COMPOUND>
CCN[C@@H]1C[C@H]2CC[C@@H](C1)N2c1nc2c(cc1F)c(=O)c(C(=O)O)cn2C1CC1 [Example 5a]

>  <UNIT_DESCRIPTOR>
µg/mL

>  <MIC>
0.8

$$$$

From here, focus on the item given below.
// MIC lookup, key: CCN[C@@H]1C[C@H]2CC[C@@H](C1)N2c1cc2c(cc1F)c(=O)c(C(=O)O)cn2C1CC1 [Example 5e]
0.8
